Where do the numbers come from? From patent US12595253B2.

Target: JAK2 (Homo sapiens, UniProt O60674)
Construct: purchased Carna Biosciences
Sequence (O60674 whole entry): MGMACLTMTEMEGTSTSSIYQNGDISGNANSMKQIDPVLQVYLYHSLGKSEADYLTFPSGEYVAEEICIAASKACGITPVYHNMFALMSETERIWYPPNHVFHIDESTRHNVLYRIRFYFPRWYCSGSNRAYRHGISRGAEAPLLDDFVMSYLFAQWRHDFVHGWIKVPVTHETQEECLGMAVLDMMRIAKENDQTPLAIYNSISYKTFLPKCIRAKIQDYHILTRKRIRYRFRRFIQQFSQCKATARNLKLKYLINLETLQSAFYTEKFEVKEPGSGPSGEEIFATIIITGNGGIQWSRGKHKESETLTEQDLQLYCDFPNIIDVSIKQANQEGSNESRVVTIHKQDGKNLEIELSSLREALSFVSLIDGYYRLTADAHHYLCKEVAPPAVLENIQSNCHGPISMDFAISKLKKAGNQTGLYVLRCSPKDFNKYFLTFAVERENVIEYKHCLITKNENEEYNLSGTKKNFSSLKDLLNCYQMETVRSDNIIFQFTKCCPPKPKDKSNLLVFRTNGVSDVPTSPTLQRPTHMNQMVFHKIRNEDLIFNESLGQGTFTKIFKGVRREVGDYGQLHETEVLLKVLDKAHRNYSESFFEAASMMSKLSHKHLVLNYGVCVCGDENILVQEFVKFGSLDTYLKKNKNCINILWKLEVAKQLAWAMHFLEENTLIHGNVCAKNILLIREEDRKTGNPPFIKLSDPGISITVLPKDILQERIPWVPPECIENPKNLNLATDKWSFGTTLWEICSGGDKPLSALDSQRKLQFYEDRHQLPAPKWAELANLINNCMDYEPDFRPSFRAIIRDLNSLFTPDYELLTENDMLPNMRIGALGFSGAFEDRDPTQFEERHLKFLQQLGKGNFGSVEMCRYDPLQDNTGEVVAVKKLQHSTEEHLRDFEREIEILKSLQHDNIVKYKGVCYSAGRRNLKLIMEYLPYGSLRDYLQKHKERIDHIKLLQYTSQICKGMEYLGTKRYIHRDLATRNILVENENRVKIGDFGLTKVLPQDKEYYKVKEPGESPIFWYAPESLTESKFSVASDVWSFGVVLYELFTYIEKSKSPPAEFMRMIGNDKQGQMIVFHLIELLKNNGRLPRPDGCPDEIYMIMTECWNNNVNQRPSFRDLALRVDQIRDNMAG
Experiment: JAK2 microfluidic kinase assay (Caliper EZ Reader II, FAM labeled peptide substrate)
Assay type: biochemical
Conditions: IC50 JAK2 ([…]) (1 mM ATP), 1 mM ATP
Structures can show the parent of a compound that is named as a salt.
I'd be grateful if you could share measured IC50 for these entries.

Query string: Requested read-out: IC50. Entry: Cc1cnc(Nc2cnn(C3CC(C#N)C3)c2)nc1-c1ccc(C(=O)NCC#N)cc1 (stereo not shown) [Example 106]
Result string: 0.00217 µM

Query string: Would you mind telling me what IC50 value was observed for Cc1cnc(Nc2cnn(C3CCN(C(=O)C4(C(F)(F)F)CC4)CC3)c2)nc1-c1ccc(C(=O)NCC#N)cc1 [Example 115] ?
Result string: < 0.00025 µM

Query string: Please look up its IC50: Cc1cnc(Nc2cnn(C3CCN(C(=O)CO)CC3)c2)nc1-c1ccc(C(=O)N[C@@H](C)C#N)cc1 [Example 119]
Result string: < 0.00025 µM

Query string: Can you share its IC50? I mean this compound: Cc1cnc(Nc2cnn(C)c2)nc1-c1ccc(C(=O)NCC2(O)CC2)cc1 [Example 32]
Result string: 0.165 µM

Query string: State the recorded IC50 for this entry: Cc1cnc(Nc2cnn(C3CC3)c2)nc1-c1ccc(C(=O)N2CC(C#N)C2)c(F)c1 [Example 140]
Result string: 0.155 µM

Query string: # IC50 lookup, item Cc1cnc(Nc2cnn(CC#N)c2)nc1-c1ccc(C(=O)N[C@H](C)C#N)cc1 [Example 54]
Result string: 0.21 µM

Query string: May I ask what IC50 has been recorded for CCn1cc(Nc2ncc(Cl)c(-c3ccc(C(=O)N[C@@H](C)C#N)cc3)n2)cn1 [Example 229] ?
Result string: 0.00168 µM

Query string: Suppose we examine the compound CCC[C@@H](C#N)NC(=O)c1ccc(-c2nc(Nc3cnn(CCO)c3)ncc2C)cc1 [Example 192] ; what IC50 value has been reported?
Result string: 0.0225 µM

Query string: Which IC50 is reported for this compound? C[C@@H](C#N)NC(=O)c1ccc(-c2nc(Nc3cnn(C4CC4)c3)ncc2C(F)F)cc1F [Example 138]
Result string: 0.688 µM

Query string: Which IC50 reading was recorded for the compound C[C@@H](C#N)NC(=O)c1ccc(-c2nc(Nc3cnn(C4CC4)c3)ncc2Cl)cc1F [Example 137] ?
Result string: 0.0464 µM

Query string: Query (compound): N#CCNC(=O)c1ccc(-c2nc(Nc3cnn(CC#N)c3)ncc2F)cc1 [Example 45] ; field requested: IC50
Result string: 0.256 µM

Query string: Can you share its IC50? I mean this compound: Cc1cnc(Nc2cnn(C3CCN(C)CC3)c2)nc1-c1ccc(C(=O)N[C@H](C#N)C2CC2)cc1 [Example 180]
Result string: 0.00059 µM

Query string: Entry C[C@H](C#N)NC(=O)c1ccc(-c2nc(Nc3cnn(C4CCN(C)CC4)c3)ncc2Cl)cc1 [Example 58] has what IC50?
Result string: 0.0422 µM

Query string: Need IC50 of C[C@@H](C#N)NC(=O)c1ccc(-c2nc(Nc3cnn(C4CCNCC4)c3)ncc2Cl)cc1 [Example 165] , thanks.
Result string: 0.00116 µM

Query string: Look at this compound and give its reported IC50. Cc1cnc(Nc2cnn(C(C)C(F)(F)F)c2)nc1-c1ccc(C(=O)N[C@@H](C)C#N)cc1 (stereo partly shown) [Example 166]
Result string: 0.0156 µM

Query string: Given Cc1cnc(Nc2cnn(C3CC(C)(C)OC(C)(C)C3)c2)nc1-c1ccc(C(=O)NCC#N)cc1 [Example 113] , state its recorded IC50.
Result string: < 0.00025 µM

Query string: Looking for the measured IC50 of Cc1cnc(Nc2cnn(C)c2)nc1-c1ccc(C(=O)NCC2(C#N)CC2)cc1 [Example 12] , can you help?
Result string: 0.0955 µM

Query string: Look at this compound and give its reported IC50. Cc1cnc(Nc2cnn(C3CCN(C)CC3)c2)nc1-c1ccc(C(=O)N[C@@H](C)C#N)cc1 [Example 48]
Result string: 0.00102 µM

Query string: What value of measured IC50 is listed for CC[C@@H](C#N)NC(=O)c1ccc(-c2nc(Nc3cnn(C4CC(C)(C)OC(C)(C)C4)c3)ncc2Cl)cc1 [Example 182] ?
Result string: < 0.00025 µM

Query string: Value lookup for IC50; key = CC(C)(C#N)CNC(=O)c1ccc(-c2nc(Nc3cnn(C4CCOCC4)c3)ncc2Cl)cc1 [Example 80]
Result string: 0.00058 µM

Query string: Given Cc1cnc(Nc2cnn(CC(F)F)c2)nc1-c1ccc(C(=O)NCC#N)cc1 [Example 27] , state its recorded IC50.
Result string: 0.0502 µM

Query string: What value of measured IC50 is listed for C[C@@H](C#N)NC(=O)c1ccc(-c2nc(Nc3cnn(CC#N)c3)ncc2F)cc1 [Example 53] ?
Result string: 0.293 µM

Query string: IC50 lookup needed for Cc1cnc(Nc2cnn(C)c2)nc1-c1ccc(C(=O)NCC(C)(C)C#N)cc1 [Example 13] , thanks.
Result string: 0.0787 µM

Query string: Request the reported IC50 associated with Cc1cnc(Nc2cnn([C@H]3C[C@@H](C)N[C@@H](C)C3)c2)nc1-c1ccc(C(=O)N[C@@H](C)C#N)cc1 [Example 232]
Result string: 0.00043 µM

Query string: IC50 lookup needed for C[C@@H](C#N)NC(=O)c1ccc(-c2nc(Nc3cnn(CCC#N)c3)ncc2Cl)cc1 [Example 189] , thanks.
Result string: 0.044 µM

Query string: Fill in the blank: the reported IC50 of N#CCNC(=O)c1ccc(-c2ccnc(Nc3cnn(C4CC4)c3)n2)cc1F [Example 139] is ____.
Result string: 0.219 µM

Query string: Item CN1CCC(n2cc(Nc3ncc(Cl)c(-c4ccc(C(=O)NCC#N)cc4)n3)cn2)CC1 [Example 44] has what recorded IC50?
Result string: 0.00054 µM

Query string: What does the data say about its IC50? Entry: N#CCNC(=O)c1ccc(-c2nc(Nc3cnn(C4CCN(C(=O)C5CC5)CC4)c3)ncc2C(F)(F)F)cc1 [Example 161]
Result string: > 5 µM

Query string: Given the compound CC[C@@H](C#N)NC(=O)c1ccc(-c2nc(Nc3cnn(C4CC(C)(C)OC(C)(C)C4)c3)ncc2C)cc1 [Example 179] , what is its reported IC50?
Result string: 0.00043 µM

Query string: Give the measured IC50 of Cc1cnc(Nc2cnn(C3CCNCC3)c2)nc1-c1ccc(C(=O)NCC(N)=O)cc1 [Example 82, hydrochloride] .
Result string: 0.202 µM

Query string: Requested field: IC50. Item: Cc1cnc(Nc2cnn(C3CCOCC3)c2)nc1-c1ccc(C(=O)N2CC(C#N)C2)cc1 [Example 31]
Result string: 0.0717 µM
